The reported measurements were obtained from PubChem BioAssay (NCI).

Recorded measurements of growth, one per entry
Test system: LOX IMVI melanoma
Experiment summary: NCI-60 one-dose screen, 48 h (100 = growth as untreated, 0 = no growth, -100 = all killed)
Study conditions: 10 µM unless noted
The panel holds about 83,000 compounds, 20% with a hit somewhere; the sample as a whole holds those more often. The source made the active and inactive calls. The calls were made as follows: active = growth percent below 10; inactive = the rest.

[
  {
    "Molecule": "COc1ccc(/C=C/C(=O)c2cc(OC)c(OC)c(OC)c2)cc1OCC(=O)Nc1nc2ccc(OC(F)(F)F)cc2s1",
    "growth": "-22.9% (active)"
  },
  {
    "Molecule": "C[C@]1(O)CC(=O)[C@]2(O)C3=C(C=C[C@]2(O)C1)C(=O)c1c(O)cccc1C3=O",
    "growth": "-51.5% (active)"
  },
  {
    "Molecule": "CCCCNC(=O)c1cc([N+](=O)[O-])cc(C2CCCCC2)c1O",
    "growth": "36.2% (inactive)"
  },
  {
    "Molecule": "CCc1ccc(CCC(=O)Nc2ncc(Cc3ccccc3)s2)o1",
    "growth": "42.4% (inactive)"
  },
  {
    "Molecule": "COC(=O)c1ccc(NC(=O)Nc2ccc(C(=O)OC)cc2)cc1",
    "growth": "98.1% (inactive)"
  },
  {
    "Molecule": "COc1ccc(C(O)c2cc3c(N)c(C(=O)Nc4cccc(Cl)c4C)sc3nc2C)cc1 (stereo not drawn)",
    "growth": "22% (inactive)"
  },
  {
    "Molecule": "CN(C)c1ccc(-c2ccc3c(c2)c(-c2ccccc2)nc(=O)n3C)cn1",
    "growth": "34.3% (inactive)"
  },
  {
    "Molecule": "N=C(N)c1ccc(-c2ccc(-c3ccccc3)s2)cc1",
    "growth": "-70.2% (active)"
  },
  {
    "Molecule": "Cc1ccc(S(=O)(=O)c2nc(-c3ccccc3)oc2Sc2nc3ccccc3s2)cc1",
    "growth": "24.6% (inactive)"
  },
  {
    "Molecule": "Fc1ccc(Cn2cc(CSc3nc4ccccc4o3)nn2)cc1",
    "growth": "107% (inactive)"
  },
  {
    "Molecule": "NC(=O)c1cnc(Nc2cccc(N)c2)nc1NCCCNC(=O)C1CCC1",
    "growth": "68.7% (inactive)"
  },
  {
    "Molecule": "CC1(C)CC[C@]2(CO)CC[C@]3(C)[C@H](CC[C@@H]4[C@@]5(C)CCCNC(C)(C)[C@@H]5CC[C@]43C)[C@H]2[C@H]1O",
    "growth": "69.4% (inactive)"
  },
  {
    "Molecule": "CC1C=CC(OC(=O)C(C)(O)CCC(O)(C(=O)OC2CC(O)C(C(C)C)CC2(C)O)C(C)C)(C(C)C)CC1 (stereo not drawn)",
    "growth": "-88.4% [4.63 µM] (active)"
  },
  {
    "Molecule": "Cc1ccc2c(-c3nnc(N)s3)cc(=O)oc2c1C",
    "growth": "101% (inactive)"
  },
  {
    "Molecule": "Nc1nc(N)c2c(n1)NC(c1ccc(Cl)cc1)C1CCc3ccccc3C1=N2 (stereo not drawn)",
    "growth": "56.8% (inactive)"
  },
  {
    "Molecule": "O=C(C1=Cc2cc3ccccc3n2Cc2cnnn21)c1ccc(O)cc1",
    "growth": "50.6% (inactive)"
  },
  {
    "Molecule": "O=C(CCCCCCN1CC(=O)N2[C@H](c3ccc(Br)cc3)c3[nH]c4ccccc4c3C[C@@H]2C1=O)NO",
    "growth": "12.3% (inactive)"
  },
  {
    "Molecule": "C/C(=N\\O)[C@@H]1CC[C@]2(CO)CC[C@]3(C)[C@H](CC[C@@H]4[C@@]5(C)CCCNC(C)(C)[C@@H]5CC[C@]43C)[C@@H]12",
    "growth": "77.6% (inactive)"
  },
  {
    "Molecule": "N#Cc1cccc(C2C3=C(COC3=O)N(CCO)c3cc4c(cc32)CCC4)c1 (stereo not drawn)",
    "growth": "19% (inactive)"
  },
  {
    "Molecule": "O=C(NC(Cc1nnc2n(Cc3ccccc3)c(=O)c3c4c(sc3n12)CCCC4)c1ccccc1)c1ccccc1 (stereo not drawn)",
    "growth": "109% (inactive)"
  },
  {
    "Molecule": "COc1cnc2c(c1)C(=O)c1c-2n(CCCCl)c(=O)c2ccncc12",
    "growth": "33.8% (inactive)"
  },
  {
    "Molecule": "O=C(O)[C@@H](Cc1ccc2ccccc2c1)NC(=O)n1c2ccccc2c2ccccc21",
    "growth": "35.9% (inactive)"
  },
  {
    "Molecule": "CCN(CC)c1ccc(CNc2cc(C)nc3ccccc23)cc1",
    "growth": "65% (inactive)"
  },
  {
    "Molecule": "CC1(C)NCCC[C@]2(C)[C@H]3CC[C@H]4[C@H]5[C@H](C(=O)/C=C/c6cccnc6)CCC[C@]5(CO)CC[C@@]4(C)[C@]3(C)CC[C@@H]12",
    "growth": "13% (inactive)"
  },
  {
    "Molecule": "CCOC(=O)c1c(C)c2c(n1Cc1ccccc1)CSCC2=O",
    "growth": "-24.4% [100 µM] (active)"
  },
  {
    "Molecule": "COc1ccc2nc(Cl)c(/C=C3\\CC(c4ccccc4)=NN(c4ccccc4)C3=O)cc2c1",
    "growth": "78.3% (inactive)"
  },
  {
    "Molecule": "NC(=O)c1cccc([C@@H]2O[C@H](CO)[C@@H](O)[C@H]2O)c1",
    "growth": "91.5% (inactive)"
  },
  {
    "Molecule": "[2H]C([2H])([2H])Oc1ccc(F)cc1/C=C/C(=O)/C=C(/C=C/c1cc(F)ccc1OC([2H])([2H])[2H])OB(F)F",
    "growth": "57.1% (inactive)"
  },
  {
    "Molecule": "O=C1/C(=C/c2ccccc2F)CN(C(=O)C(Cl)Cl)C/C1=C\\c1ccccc1F",
    "growth": "-86.4% (active)"
  },
  {
    "Molecule": "CCOC(=O)c1cc(C(=O)c2cc(OC)c(OC)c(OC)c2)n2ccccc12",
    "growth": "47% (inactive)"
  },
  {
    "Molecule": "Clc1c(Cl)[n+](Cc2ccc3ccccc3c2)cn1Cc1ccc2ccccc2c1",
    "growth": "-21.4% (active)"
  },
  {
    "Molecule": "N#Cc1c(-c2ccccc2)nc(SCc2nnc(-c3ccc(Cl)cc3)o2)[nH]c1=O",
    "growth": "94.1% (inactive)"
  },
  {
    "Molecule": "CN(Cc1cnc2nc(N)nc(N)c2n1)c1ccc(C(=O)NC(CCC(=O)O)C(=O)O)cc1Br (stereo not drawn)",
    "growth": "17.7% (inactive)"
  },
  {
    "Molecule": "COC(=O)CCC/C=C\\C[C@H]1C=CC(=O)/C1=C/C[C@@H](O)C/C=C\\CC(F)(F)F",
    "growth": "-82.7% (active)"
  },
  {
    "Molecule": "CCOc1ccc(-n2nc(C(=O)NCc3ccccc3OC)nc2-c2cc(OC)c(OC)c(OC)c2)cc1",
    "growth": "36.3% (inactive)"
  },
  {
    "Molecule": "COc1cc2c(c(OC)c1OC)C(=O)CC(c1cccc(NC(=O)c3ccc(C#N)cc3)c1)O2 (stereo not drawn)",
    "growth": "65.7% (inactive)"
  },
  {
    "Molecule": "CCNc1nc(O)c(/C=C2\\C=Nc3ncccc32)s1",
    "growth": "1.75% (active)"
  },
  {
    "Molecule": "O=C(CI)NC(=O)NC(=O)NCc1ccccc1",
    "growth": "-77.7% (active)"
  }
]
